assay: gradient 5% acetonitrile 3 min, to 50% in 2 min, to 85% in 15 min, held 3 min, 100 µL/min; settings: column: Zorbax Extend-C18 2.1 x 50 mm; eluents: water / acetonitrile, 0.1% formic acid
ASSAY READOUT: RP-LC retention time (s)

Before answering, review these 5 worked examples.
Cc1cccn2cc(-c3cccc(S(=O)(=O)N4CC(C)OC(C)C4)c3)nc12 (centres undefined); 671
O=C(O)c1cccc(-c2ccc(N3CCCCCC3)nc2)c1; 627
Cc1cc2nn(CC(=O)N3CCC(C)CC3)c(=O)n2c(-c2cccc(Cl)c2)n1; 894
CCC(C(=O)N1CCN(c2ccccn2)CC1)n1nc(C)c2sc3ccccc3c2c1=O (centres undefined); 705
COc1cc(-c2nc3cccc(C)n3c2Nc2ccc(C)cc2)ccc1O; 989

[P] CCCS(=O)(=O)N1CCC(C2CCN(C(=O)NC)CC2)C1 (centres undefined)
[Q] O=C(Nc1ccc(Br)cc1)C1CCCN(c2ncc(-c3ccc(F)cc3)cn2)C1 (centres undefined)
Req: Param metric = RP-LC retention time; output whichever of P , Q has the minimum value. Mark your answer with the label of the selected entry.
Resp: P

* * *

test: gradient 5% acetonitrile 3 min, to 50% in 2 min, to 85% in 15 min, held 3 min, 100 µL/min; conditions: column: Zorbax Extend-C18 2.1 x 50 mm; eluents: water / acetonitrile, 0.1% formic acid
ASSAY READOUT: RP-LC retention time (s)

O=C(NCc1ccc2c(c1)OCO2)C1CCCN(c2ncc(-c3cccc(F)c3)cn2)C1 (stereo not given); 998
Cc1nc2c(sc3nc(-c4ccccc4)ccc32)c(=O)n1CC(=O)Nc1ccc(C(F)(F)F)cc1; 1280
O=C(NCC(O)c1ccsc1)c1ccc2c(c1)OCO2 (stereo not given); 652
Cc1ccc(OCC(=O)Nc2cnn(C)c(=O)c2N2CCCCC2)cc1; 1070
Nc1nnc(SCc2nnc(-c3cccc(F)c3)o2)s1; 646

[a] Cn1nccc1C(=O)Nc1ccc(OCc2nnc(-c3ccc(Cl)cc3)o2)cc1
[b] CC(=O)N(Cc1nn(C)c2c1CN(Cc1cccc(O)c1)CC2)c1ccccc1
[c] CCCCN(CC)c1nc2cc(C(=O)OC)ccc2c(=O)n1-c1ccccc1
Req: Could you please sort these 3 entries by RP-LC retention time from high to low? Provide your answer as the labels ordered per the instruction.
Resp: c, a, b

[a] CCC(C)NC(=O)C1CCN(c2cnc(N3CCCCC3)nc2)CC1 (stereo not given)
[b] CC(C)c1ccc(S(=O)(=O)N2CCC(C(=O)NCCc3csc(-c4ccccc4)n3)CC2)cc1
Req: Rank a against b by their RP-LC retention time values and give the higher one. Answer with the label corresponding to your selection.
Resp: b

[P] CCOc1ccccc1C(=O)NCc1nc(C)no1
[Q] CCOc1ccc(-c2nc(CN(c3ccccc3)S(=O)(=O)c3cccs3)c(C)o2)cc1OC
Req: Param metric = RP-LC retention time; output whichever of P , Q has the minimum value. State the label of the item chosen.
Resp: P
(P: 684 s, Q: 1120 s)

* * *

experiment: gradient 5% acetonitrile 3 min, to 50% in 2 min, to 85% in 15 min, held 3 min, 100 µL/min; settings: column: Zorbax Extend-C18 2.1 x 50 mm; eluents: water / acetonitrile, 0.1% formic acid
ASSAY READOUT: RP-LC retention time (s)

COc1ccc(C(C)NC(=O)Cn2nc3cc(-c4ccccc4)nc(C)n3c2=O)cc1 (stereo not given); 908
CCOC(=O)c1noc2ncnc(N(CCN(C)C)Cc3ccccc3)c12; 656
CCCNC(=O)N1CCCCC1c1n[nH]c(C)n1 (stereo not given); 577

[I] Cc1ccn2cc(-c3ccc(NC(=O)c4ccc([N+](=O)[O-])cc4Cl)cc3)nc2n1
[II] COC(=O)CC1=CC(SCC(=O)N2CCN(c3ccccc3)CC2)=Nc2ccccc2N1
Req: Hello, I am sorting some records. Could you say if I or II has the smaller RP-LC retention time value? Label of pick, please.
Resp: I
(I: 660 s, II: 1080 s)

* * *

experiment: gradient 5% acetonitrile 3 min, to 50% in 2 min, to 85% in 15 min, held 3 min, 100 µL/min; details: column: Zorbax Extend-C18 2.1 x 50 mm; eluents: water / acetonitrile, 0.1% formic acid
ASSAY READOUT: RP-LC retention time (s)

Known results for molecules:
COc1ccc(NC(=O)Cn2nc3cc(-c4ccccc4)nc(C)n3c2=O)c(OC)c1; 918
CCOC(=O)Cc1ccc(NC(=O)N2CCc3cn(CC)c4cccc(c34)C2)cc1; 1020
Cc1ccc(NC(=O)N2CCCC2c2nc(-c3ccccc3)no2)c(Cl)c1 (stereo not drawn); 1100
COCc1noc(C2CN(C(=O)c3cn[nH]c3)CC23CCCC3)n1 (stereo not drawn); 637
COc1ccc(NC(=O)c2cnc(N3CCN(C4CCCCC4)CC3)nc2N)cc1; 631

[1] O=C(NCc1ccc2c(c1)OCO2)c1nnc2n(c1=O)CCN2c1ccc(F)cc1
[2] O=C(NCc1ccco1)c1csc(N2CCN(c3ccc(Cl)cc3)CC2)n1
Req: Sort 1 and 2 by RP-LC retention time descending and give the first. Identify your selection by its label.
Resp: 2
(2: 1090 s, 1: 683 s)

* * *

test: gradient 5% acetonitrile 3 min, to 50% in 2 min, to 85% in 15 min, held 3 min, 100 µL/min; settings: column: Zorbax Extend-C18 2.1 x 50 mm; eluents: water / acetonitrile, 0.1% formic acid
ASSAY READOUT: RP-LC retention time (s)

Below, each entry is followed by its recorded RP-LC retention time result.
COC(=O)c1c(NCc2ccccc2OC)c2cccc(Cl)c2[nH]c1=O; 820
O=C(C1CC1)N1CCc2sc(S(=O)(=O)NCc3ccc(Cl)cc3)cc2C1; 856
O=C(CCCn1nc(-c2cccs2)ccc1=O)Nc1cccc2nsnc12; 728
COc1ccc2[nH]c3c(c2c1)CCNC3c1ccc(C)cc1 (centres undefined); 654

[1] CCOc1cccc(-c2noc(Cc3nnc(-c4cccc(F)c4)o3)n2)c1
[2] O=C(NC1CCCC1)C1CCCN(c2nnc3ccc(Cl)cn23)C1 (centres undefined)
Req: Short answer wanted: higher RP-LC retention time, 1 or 2 ? Identify your pick by its label.
Resp: 1

[A] CS(=O)(=O)N1CCc2ccc(C(=O)NCCN3CCC(N4CCCCC4)CC3)cc21
[B] CCOc1ccc(-c2nc(Cc3noc(-c4ccccc4)n3)c(C)o2)cc1
[C] Cc1ccc(NC(=O)C2CCN(S(=O)(=O)c3cc(C(=O)N(C)C)cs3)CC2)cc1C
Req: Please put the entries in order of rising RP-LC retention time. Write the labels in rank order as requested.
Resp: A, C, B

* * *

assay: gradient 5% acetonitrile 3 min, to 50% in 2 min, to 85% in 15 min, held 3 min, 100 µL/min; details: column: Zorbax Extend-C18 2.1 x 50 mm; eluents: water / acetonitrile, 0.1% formic acid
ASSAY READOUT: RP-LC retention time (s)

Study these solved cases before continuing.
COC(=O)c1cc(S(=O)(=O)N2CCCC2C(=O)Nc2nc3ccc(OC)cc3s2)cn1C (stereo not given); 893
O=C(c1ccc2c(c1)N(Cc1ccccc1)C(=O)CO2)N1CCc2ccccc21; 980
COc1cccc(CNC2CCN(c3ccc(C(=O)NC4CC4)cn3)C2)c1O (stereo not given); 556

[P] Cc1ccc(C)c(CNC(=O)c2nnc(-c3ccc(S(=O)(=O)N(C)C)cc3)o2)c1
[Q] Cc1ccsc1C(=O)N1CCC2(CC1)CC(N1CCOCC1)CCO2 (stereo not given)
Req: Please state the entry with greater RP-LC retention time among P and Q . Mark your selection by writing its label.
Resp: P
(P: 950 s, Q: 577 s)

* * *

assay: gradient 5% acetonitrile 3 min, to 50% in 2 min, to 85% in 15 min, held 3 min, 100 µL/min; details: column: Zorbax Extend-C18 2.1 x 50 mm; eluents: water / acetonitrile, 0.1% formic acid
ASSAY READOUT: RP-LC retention time (s)

Example compounds with recorded RP-LC retention time:
CCc1ccc(NC(=O)Cn2c(N)nc(C)cc2=O)cc1; 639
Cc1ccc(S(=O)(=O)N2C[C@@H](F)C[C@H]2C(=O)N2CCOCC2)c(C)c1; 740
O=C(NCC1CCOCC1)Nc1cc(F)c(F)c(F)c1; 755
CCCN(CC1CCOC1)C(=O)Nc1ccccc1Br (stereo not given); 832
Cc1nn(-c2ccccc2)c(C)c1S(=O)(=O)N1CCC(C(=O)NCc2ccc3c(c2)OCO3)CC1; 884
COc1ccc(N2CCN(c3cc(SCC(=O)Nc4ccccc4Cl)ncn3)CC2)cc1; 1110
O=C(NCCC1CCN(C(=O)Nc2ccccc2F)CC1)c1ccoc1; 713
Cc1ccc(CNC(=O)N2CCN(c3cnn4c(C)nnc4c3)CC2)cc1; 568

[I] CCOC(=O)c1cccc(N2C=C(C(=O)N3CCCC3)S(=O)(=O)c3ccc(Cl)cc32)c1
[II] COc1ccc(OC)c(S(=O)(=O)NCCN2CCN(c3ccccc3F)CC2)c1
Req: Recorded RP-LC retention time values differ for I and II ; which one is higher? Kindly give the label for the entry you pick.
Resp: I

Data credit: the METLIN SMRT retention time set (Domingo-Almenara et al. 2019)
